Source listed as PubChem BioAssay (NCI).

# Tested on: COLO 205 colon
# Experiment: NCI-60 one-dose screen, 48 h (100 = growth as untreated, 0 = no growth, -100 = all killed)
# Cond: 10 µM unless noted
# Experimental: Cells are grown in 96 well plates and exposed to the test compound for 48 hours. Compounds are tested at a single concentration, which is 10^-5 M for most compounds. The reported endpoint is percent growth (GI% or GIPRCNT), where numbers from 0 - 100% represent growth inhibition, and numbers from -100% - 0 represent cell death. For example, a value of 40 represents 60% growth inhibition. A value of 0 means no net growth occurred over the course of the experiment. […]
Compounds without any hit were thinned out: in the full panel of roughly 83,000, 20% have a hit. Calls of active or inactive are those of the source. How the source made its calls: active means growth percent below 10; inactive means the rest.
We begin with a simple list: items and their reported growth.
Recorded endpoint: growth

{"Compound": "CCCCNC1=C(OCC)C(=O)c2ccccc2C1=O", "Target under test": "COLO 205 colon", "Endpoint result": "116% (inactive)"}
{"Compound": "N#Cc1c(N2CCOCC2)nc(=S)[nH]c1-c1ccccc1", "Target under test": "COLO 205 colon", "Endpoint result": "77.3% (inactive)"}
{"Compound": "Cc1nc2sc(C(=O)Nc3ccccc3)c(N)c2cc1C(=O)/C=C/c1ccccc1", "Target under test": "COLO 205 colon", "Endpoint result": "14.2% (inactive)"}
{"Compound": "COc1ccc(-c2nnc(SCC(=O)Nc3ccc(/C(C)=N\\O)cc3)n2-c2ccccc2)cc1OC", "Target under test": "COLO 205 colon", "Endpoint result": "99.1% (inactive)"}
{"Compound": "COc1ccc(C(O)c2cc3c(N)c(C(=O)Nc4cccc(Cl)c4)sc3nc2C)cc1 (centres undefined)", "Target under test": "COLO 205 colon", "Endpoint result": "3.71% (active)"}
{"Compound": "C#CC#CC#CC#CC#CC#CC#CC#CCC1OCC(COC(=O)O[C@@H](C(=O)O[C@H]2C[C@@]3(O)[C@@H](OC(=O)c4ccccc4)[C@@H]4[C@]5(OC(C)=O)CO[C@@H]5C[C@H](O)[C@@]4(C)C(=O)[C@H](OC(C)=O)C(=C2C)C3(C)C)[C@@H](NC(=O)c2ccccc2)c2ccccc2)O1 (some centres undefined)", "Target under test": "COLO 205 colon", "Endpoint result": "12.6% (inactive)"}
{"Compound": "Cc1nc2sc(C(=O)Nc3cccc(Cl)c3)c(N)c2cc1C(O)c1ccccc1 (centres undefined)", "Target under test": "COLO 205 colon", "Endpoint result": "20.8% (inactive)"}
{"Compound": "COc1ccc(/C=C/C(=O)c2ccc(Nc3nc(Nc4ccc(F)cc4)nc(Nc4ccc(Cl)cc4)n3)cc2)cc1", "Target under test": "COLO 205 colon", "Endpoint result": "96% (inactive)"}
{"Compound": "O=C1/C(=C/c2ccc(C(F)(F)F)cc2)COc2ccc(O)c(O)c21", "Target under test": "COLO 205 colon", "Endpoint result": "12.3% (inactive)"}
{"Compound": "O=C(Nc1cccc(NC(=O)C2CCCCC2)c1)c1ccccn1", "Target under test": "COLO 205 colon", "Endpoint result": "117% (inactive)"}
{"Compound": "O=C(/C=C/C12c3ccccc3C(c3ccccc31)C1C(=O)NC(=O)C12)c1ccccn1 (centres undefined)", "Target under test": "COLO 205 colon", "Endpoint result": "-50.5% (active)"}
{"Compound": "COc1cc(C2Cc3ncccc3-c3[nH]c(=O)c4cccnc4c32)cc(OC)c1OC (centres undefined)", "Target under test": "COLO 205 colon", "Endpoint result": "-20% (active)"}
{"Compound": "CCCCCCC(=O)Nc1ncc(Cc2ccc(C)cc2)s1", "Target under test": "COLO 205 colon", "Endpoint result": "16.5% (inactive)"}
{"Compound": "COc1cc(/C=C2\\C(=O)N(c3c(Cl)cccc3Cl)c3ccccc32)cc(OC)c1OCCCCCCn1c2ccccc2c(=O)c2ccccc21", "Target under test": "COLO 205 colon", "Endpoint result": "107% (inactive)"}
{"Compound": "O=C(/C=C/C12c3ccccc3C(c3ccccc31)C1C(=O)NC(=O)C12)c1ccc(F)cc1 (centres undefined)", "Target under test": "COLO 205 colon", "Endpoint result": "-45.4% (active)"}
{"Compound": "CN(C)c1ccc(/C=C/C(=O)c2ccc(Nc3nc(Nc4ccc(F)cc4)nc(Nc4ccc(Cl)cc4)n3)cc2)cc1", "Target under test": "COLO 205 colon", "Endpoint result": "64.2% (inactive)"}
{"Compound": "N=C(N)c1ccc(-c2ccc(-c3ccc(Cl)cc3)o2)o1", "Target under test": "COLO 205 colon", "Endpoint result": "-78.6% (active)"}
{"Compound": "CO[C@H](C(=O)[C@@H](O)[C@@H](C)O)[C@@H]1Cc2cc3cc(O[C@H]4C[C@@H](O[C@H]5C[C@@H](O)[C@H](O)C(C)O5)[C@H](O)C(C)O4)c(C)c(O)c3c(O)c2C(=O)[C@H]1O[C@H]1C[C@@H](O[C@H]2C[C@@H](O[C@H]3C[C@@H](OC)[C@H](O)C(C)O3)[C@@H](O)C(C)O2)C(O)(O)C(C)O1 (some centres undefined)", "Target under test": "COLO 205 colon", "Endpoint result": "-80% (active)"}
{"Compound": "CS(=O)(=O)Nc1cc(-c2ccc3ncnc(Nc4ccc5c(cnn5Cc5cccnc5)c4)c3c2)cnc1Cl", "Target under test": "COLO 205 colon", "Endpoint result": "68.3% (inactive)"}
{"Compound": "Cc1c2ccccc2nc2c1ccc1cccnc12", "Target under test": "COLO 205 colon", "Endpoint result": "50.8% (inactive)"}
{"Compound": "Cc1ccc(C)n1/C=C/n1c(C)ccc1C", "Target under test": "COLO 205 colon", "Endpoint result": "96.9% (inactive)"}
{"Compound": "O=c1ccc2nc(C(F)(F)F)nn(-c3ccccc3)c-2c1", "Target under test": "COLO 205 colon", "Endpoint result": "-70.7% (active)"}
{"Compound": "CN(C)c1ccc(/C=C/C(=O)c2ccccc2)cc1", "Target under test": "COLO 205 colon", "Endpoint result": "93.7% (inactive)"}
{"Compound": "CN1CCN(CCCOC(=O)c2c3c(n4ccccc24)C(=O)c2ncccc2C3=O)CC1", "Target under test": "COLO 205 colon", "Endpoint result": "-93.2% (active)"}
{"Compound": "COc1ccc(C2=CN3CC=CCC3CC2=O)cc1 (centres undefined)", "Target under test": "COLO 205 colon", "Endpoint result": "113% (inactive)"}
{"Compound": "COC(=O)/C=C1/SC(=Nc2cccc(Cl)c2)N(CCc2c[nH]c3ccc(O)cc23)C1=O", "Target under test": "COLO 205 colon", "Endpoint result": "90.3% (inactive)"}
{"Compound": "CCCCCCCCCCCCCCCCOC(=O)c1c(C)[nH]c(/C=C2\\N=C(c3ccc[nH]3)C=C2OC)c1C", "Target under test": "COLO 205 colon", "Endpoint result": "33.6% (inactive)"}
{"Compound": "COc1cccc(OC)c1Oc1c(-c2nc3ccccc3s2)c(C)nn1-c1ccccc1", "Target under test": "COLO 205 colon", "Endpoint result": "98.4% (inactive)"}
{"Compound": "N#Cc1c(-c2ccccc2)nc2c(c(-c3ccccc3)nn2-c2ccccc2)c1-c1ccc(N2CCOCC2)cc1", "Target under test": "COLO 205 colon", "Endpoint result": "79.6% (inactive)"}
{"Compound": "O=C(CBr)CN1C(=O)c2ccccc2C1=O", "Target under test": "COLO 205 colon", "Endpoint result": "101% (inactive)"}
{"Compound": "N#CC(C#N)N=Nc1ccc(Cl)cc1Cl", "Target under test": "COLO 205 colon", "Endpoint result": "67.2% (inactive)"}
{"Compound": "COc1ccccc1-n1c(-c2cc(O)ccc2C)cn2c3c(=O)[nH]c(=O)n(C)c3nc12", "Target under test": "COLO 205 colon", "Endpoint result": "84.2% (inactive)"}
{"Compound": "C#CC#CC#CC#CC#CC#CC#CC#CC[C@H]1OC[C@@H](COC(=O)O[C@@H](C(=O)O[C@H]2C[C@@]3(O)[C@@H](OC(=O)c4ccccc4)[C@@H]4[C@]5(OC(C)=O)CO[C@@H]5C[C@H](O)[C@@]4(C)C(=O)[C@H](OC(C)=O)C(=C2C)C3(C)C)[C@@H](NC(=O)c2ccccc2)c2ccccc2)O1", "Target under test": "COLO 205 colon", "Endpoint result": "29.4% (inactive)"}
{"Compound": "CCn1cc(CNc2ccc(C(=O)Nc3cc4cc(OC)c(OC)cc4c(C)n3)cc2)c(C)n1", "Target under test": "COLO 205 colon", "Endpoint result": "28.9% (inactive)"}

###

Quick reference for growth among some compounds
# Tested on: 786-0 renal
# Experiment: NCI-60 one-dose screen, 48 h (100 = growth as untreated, 0 = no growth, -100 = all killed)
# Cond: 10 µM unless noted
This is part of a sample that, as a whole, favours compounds with a hit. Of some 83,000 tested, about 20% had one in any assay.

{"Compound": "CC(/C=C1\\SC(=S)N(CC(=O)NC(Cc2c[nH]c3ccccc23)C(=O)O)C1=O)=C\\c1ccccc1 (centres undefined)", "Target under test": "786-0 renal", "growth [%]": 102}
{"Compound": "O=C1Nc2ccccc2/C1=C/c1cn(C[C@@H](O)Cn2c3ccccc3c(=O)c3ccccc32)c2ccccc12", "Target under test": "786-0 renal", "growth [%]": 86.4}
{"Compound": "CCOC(=O)c1c(NC(=O)CSc2n[nH]c3nc4ccccc4n23)sc(CC)c1C", "Target under test": "786-0 renal", "growth [%]": 98.4}
{"Compound": "CN(Cc1cnc2nc(N)nc(N)c2n1)c1c(Cl)cc(C(=O)NC(CCC(=O)O)C(=O)O)cc1Cl (centres undefined)", "Target under test": "786-0 renal", "growth [%]": 12.7}
